Molecular target: Bet BRD4 full length bromo-domain protein (Homo sapiens, UniProt O60885)
Test: Bet bromodomain TR-FRET assay (displacement of acetyl histone peptide)
Assay type: binding
Conditions: Bet BRD4 full length bromodomain protein, 300 nM acetyl histone peptide substrate, read-out: IC50
endpoint.label: IC50

>>> result("O=C(Nc1cc(C2CC2)c2c(c1)C1(CCC1)C(=O)N2)c1cccnc1N1CCOCC1")
"> 1000 nM"
>>> result("COc1ccccc1S(C)(=O)=Nc1cc([N+](=O)[O-])c2c(c1)C1(CCC1)C(=O)N2 (centres unmarked)")
"> 1000 nM"
>>> result("COc1ccccc1S(C)(=O)=Nc1cc(NC2CCN(C)CC2)c2c(c1)C1(CCC1)C(=O)N2 (centres unmarked)")
"< 600 nM"
>>> result("O=C1CCC(c2cc(NS(=O)(=O)c3ccc(F)cc3F)cc3c2NC(=O)C32CCC2)CN1 (centres unmarked)")
"< 600 nM"
>>> result("Nc1cc(NS(=O)(=O)c2ccc(F)cc2F)cc2c1NC(=O)C21CCC1")
"< 600 nM"
>>> result("NC1(COc2cc(NS(=O)(=O)c3ccc(Cl)cc3F)cc3c2NC(=O)C32CCC2)CC1")
"< 600 nM"
>>> result("COc1ccc(S(=O)(=O)Nc2cc(OC3CCN(C)CC3)c3c(c2)C2(CCC2)C(=O)N3)c(OC)c1")
"< 600 nM"
>>> result("COc1ccccc1S(=O)(=O)Nc1cc(OC2CCN(C)CC2)c2c(c1)C1(CCC1)C(=O)N2")
"< 600 nM"
>>> result("COc1ccccc1S(=O)(=O)Nc1cc(OCc2cncc(F)c2)c2c(c1)C1(CCC1)C(=O)N2")
"< 600 nM"
>>> result("O=C(c1cc(NS(=O)(=O)c2ccc(F)cc2F)cc2c1NC(=O)C21CCC1)N1CCOCC1")
"> 1000 nM"
>>> result("COc1ccccc1S(=O)(=O)Nc1cc(OCCCN(C)C)c2c(c1)C1(CCC1)C(=O)N2")
"< 600 nM"
>>> result("CN1CCC(NC(=O)c2cc(NS(=O)(=O)c3ccc(F)cc3F)cc3c2NC(=O)C32CCC2)CC1")
"< 600 nM"
>>> result("CCN(CC)CCOc1cc(NS(=O)(=O)c2ccccc2OC)cc2c1NC(=O)C21CCC1")
"< 600 nM"
>>> result("CCOc1ccccc1S(=O)(=O)Nc1cc(C(=O)NC2CCN(C)CC2)c2c(c1)C1(CCC1)C(=O)N2")
"600 to 1000 nM"
